Listed compounds paired with reported IC50
Target: CCK-B (guinea pig cortex) (Cavia porcellus)
Construct: guinea pig cortical preparations; from tissue; host or cells: guinea pig brain cortex membranes
Assay: [125I]BHCCK-8 radioligand binding, guinea pig cortical preparation
Conditions: read-out: CCK binding inhibition - IC50, [125I]BHCCK
property-label: IC50 (nM)

{"compound": "CC1=C\\[C@@H](OC(=O)Nc2ccccc2[N+](=O)[O-])CC(=O)Cc2nc(co2)C(=O)N2CCC=C2C(=O)O[C@H](C(C)C)[C@H](C)/C=C/C(=O)NC\\C=C\\1", "quantitative-readout": 300}
{"compound": "CC1=C\\[C@@H](O)CC(O)Cc2nc(co2)C(=O)N2CCC=C2C(=O)O[C@H](C(C)C)[C@H](C)/C=C/C(=O)NC\\C=C\\1 (single isomer, unassigned) [Example 14B]", "quantitative-readout": 400}
{"compound": "CC1=C\\[C@@H](OC(=O)Cc2ccccc2)CC(=O)Cc2nc(co2)C(=O)N2CCC=C2C(=O)O[C@H](C(C)C)[C@H](C)/C=C/C(=O)NC\\C=C\\1", "quantitative-readout": 600}

* * *

Molecular target: CCK-B (guinea pig cortex) (Cavia porcellus)
Construct: guinea pig cortical preparations; from tissue; host or cells: guinea pig brain cortex membranes
Experiment: [3H]L-365,260 CCK-B selective antagonist ligand binding, brain membranes
Conditions: read-out: CCK binding inhibition - IC50, [3H]L-365,260
Procedure: The resulting supernatant was re-spun at 20,000×g for 20 minutes. […] Incubations were for 40 minutes at 4° C. and were terminated by filtration and washing with ice cold 100 mM saline. […] Incubations were for 30 minutes at room temperature and were terminated by filtration over GF/C filters and washing with 100 mM NaCl.
Listed compounds paired with reported IC50

{"smiles-code": "CNC(=O)O[C@@H]1/C=C(C)/C=C/CNC(=O)/C=C/[C@@H](C)[C@@H](C(C)C)OC(=O)C2=CCCN2C(=O)c2coc(n2)CC(=O)C1", "IC50": "> 3000 nM"}
{"smiles-code": "CC(=O)O[C@@H]1/C=C(C)/C=C/CNC(=O)/C=C/[C@@H](C)[C@@H](C(C)C)OC(=O)C2=CCCN2C(=O)c2coc(n2)CC(=O)C1", "IC50": "> 3000 nM"}
{"smiles-code": "CC1=C\\[C@@H](OC(=O)Nc2ccccc2)CC(=O)Cc2nc(co2)C(=O)N2CCC=C2C(=O)O[C@H](C(C)C)[C@H](C)/C=C/C(=O)NC\\C=C\\1", "IC50": "1600 nM"}

* * *

Tested on: Bacillus sp. (Mb 633)
Test: Agar diffusion disc assay, Baci 633
Format: cell-based
Settings: Bacillus, 18 h, @ 20 g/disc; read-out: Inhibition zone diameter, Baci 633

{"smiles-code": "CC1=C\\[C@@H](OC(=O)c2ccccc2)CC(=O)Cc2nc(co2)C(=O)N2CCC=C2C(=O)O[C@H](C(C)C)[C@H](C)/C=C/C(=O)NC\\C=C\\1", "zone of inhibition at 20 µg/disc": "0 mm"}
{"smiles-code": "CC1=C\\[C@@H](OC(=O)Nc2cccc([N+](=O)[O-])c2)CC(=O)Cc2nc(co2)C(=O)N2CCC=C2C(=O)O[C@H](C(C)C)[C@H](C)/C=C/C(=O)NC\\C=C\\1", "zone of inhibition at 20 µg/disc": "0 mm"}
{"smiles-code": "CCCCC(=O)O[C@@H]1/C=C(C)/C=C/CNC(=O)/C=C/[C@@H](C)[C@@H](C(C)C)OC(=O)C2=CCCN2C(=O)c2coc(n2)CC(=O)C1", "zone of inhibition at 20 µg/disc": "0 mm"}

* * *

Listed compounds paired with reported IC50
Target: CCK-B (guinea pig cortex) (Cavia porcellus, UniProt H0VZC5)
Construct: guinea pig cortical preparations; from tissue; host or cells: guinea pig brain cortex membranes
Sequence (H0VZC5 1-426): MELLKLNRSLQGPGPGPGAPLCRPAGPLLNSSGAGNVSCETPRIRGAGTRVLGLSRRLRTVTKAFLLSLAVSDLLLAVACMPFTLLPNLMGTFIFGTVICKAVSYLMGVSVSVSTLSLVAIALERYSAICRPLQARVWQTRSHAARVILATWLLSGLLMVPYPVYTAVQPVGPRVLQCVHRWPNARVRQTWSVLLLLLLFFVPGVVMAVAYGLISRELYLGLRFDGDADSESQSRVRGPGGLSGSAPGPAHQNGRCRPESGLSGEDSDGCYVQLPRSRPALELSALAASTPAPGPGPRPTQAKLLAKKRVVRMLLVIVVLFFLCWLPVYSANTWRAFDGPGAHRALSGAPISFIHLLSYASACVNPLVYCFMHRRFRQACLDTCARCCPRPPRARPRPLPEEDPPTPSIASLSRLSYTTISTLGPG
Experiment: [3H]L-365,260 CCK-B selective antagonist ligand binding, brain membranes
Conditions: read-out: CCK binding inhibition - IC50, [3H]L-365,260
property-label: IC50 (µM)

{"compound": "CC1=C\\[C@@H](O)CC(O)Cc2nc(co2)C(=O)N2CCC=C2C(=O)O[C@H](C(C)C)[C@H](C)/C=C/C(=O)NC\\C=C\\1 (single isomer, unassigned) [Example 14A]", "test-target": "CCK-B (guinea pig cortex) (Cavia porcellus, UniProt H0VZC5)", "property-label": "IC50", "units-of-measure": "µM", "censoring-operator": "=", "quantitative-readout": 0.14}
{"compound": "CC1=C\\[C@@H](OC(=O)Nc2ccccc2[N+](=O)[O-])CC(=O)Cc2nc(co2)C(=O)N2CCC=C2C(=O)O[C@H](C(C)C)[C@H](C)/C=C/C(=O)NC\\C=C\\1 [Example 8]", "test-target": "CCK-B (guinea pig cortex) (Cavia porcellus, UniProt H0VZC5)", "property-label": "IC50", "units-of-measure": "µM", "censoring-operator": "=", "quantitative-readout": 3.1}
{"compound": "CC(=O)OC1=Cc2nc(co2)C(=O)N2CCC=C2C(=O)O[C@H](C(C)C)[C@H](C)/C=C/C(=O)NC/C=C/C(C)=C/[C@@H](OC(C)=O)C1 [Example 1]", "test-target": "CCK-B (guinea pig cortex) (Cavia porcellus, UniProt H0VZC5)", "property-label": "IC50", "units-of-measure": "µM", "censoring-operator": ">", "quantitative-readout": 3}
{"compound": "CC1=C\\[C@@H](OC(=O)Nc2ccc([N+](=O)[O-])cc2)CC(=O)Cc2nc(co2)C(=O)N2CCC=C2C(=O)O[C@H](C(C)C)[C@H](C)/C=C/C(=O)NC\\C=C\\1 [Example 10]", "test-target": "CCK-B (guinea pig cortex) (Cavia porcellus, UniProt H0VZC5)", "property-label": "IC50", "units-of-measure": "µM", "censoring-operator": "=", "quantitative-readout": 13.1}
{"compound": "CC1=C\\[C@@H](OC(=O)Nc2cccc([N+](=O)[O-])c2)CC(=O)Cc2nc(co2)C(=O)N2CCC=C2C(=O)O[C@H](C(C)C)[C@H](C)/C=C/C(=O)NC\\C=C\\1 [Example 9]", "test-target": "CCK-B (guinea pig cortex) (Cavia porcellus, UniProt H0VZC5)", "property-label": "IC50", "units-of-measure": "µM", "censoring-operator": "=", "quantitative-readout": 5.2}

* * *

Tested on: Staphylococcus aureus (Mb 108, ATCC 6538P)
Assay: Agar diffusion disc assay, Sta 108
Format: cell-based
Details: Staphylococcus aureus, ATCC6538P, 18 h; @ 20 g/disc; read-out: Inhibition zone diameter, Sta 108

{"smiles-code": "CC(=O)O[C@@H]1/C=C(C)/C=C/CNC(=O)/C=C/[C@@H](C)[C@@H](C(C)C)OC(=O)C2=CCCN2C(=O)c2coc(n2)CC(=O)C1", "zone of inhibition at 20 µg/disc": "11 mm"}
{"smiles-code": "CC1=C\\[C@@H](OC(=O)Nc2ccccc2[N+](=O)[O-])CC(=O)Cc2nc(co2)C(=O)N2CCC=C2C(=O)O[C@H](C(C)C)[C@H](C)/C=C/C(=O)NC\\C=C\\1", "zone of inhibition at 20 µg/disc": "7 mm"}
{"smiles-code": "CC1=C\\[C@@H](OC(=O)c2ccccc2)CC(=O)Cc2nc(co2)C(=O)N2CCC=C2C(=O)O[C@H](C(C)C)[C@H](C)/C=C/C(=O)NC\\C=C\\1", "zone of inhibition at 20 µg/disc": "0 mm"}
{"smiles-code": "CC1=C\\[C@@H](OC(=O)Nc2cccc(C)c2)CC(=O)Cc2nc(co2)C(=O)N2CCC=C2C(=O)O[C@H](C(C)C)[C@H](C)/C=C/C(=O)NC\\C=C\\1", "zone of inhibition at 20 µg/disc": "0 mm"}
{"smiles-code": "CC1=C\\[C@@H](OC(=O)Nc2ccccc2)CC(=O)Cc2nc(co2)C(=O)N2CCC=C2C(=O)O[C@H](C(C)C)[C@H](C)/C=C/C(=O)NC\\C=C\\1", "zone of inhibition at 20 µg/disc": "0 mm"}
{"smiles-code": "CCC(=O)O[C@@H]1/C=C(C)/C=C/CNC(=O)/C=C/[C@@H](C)[C@@H](C(C)C)OC(=O)C2=CCCN2C(=O)c2coc(n2)CC(=O)C1", "zone of inhibition at 20 µg/disc": "0 mm"}
